Target: human CB1 receptor (Homo sapiens)
Construct: membrane-enriched fractions
Sequence (P21554 whole entry): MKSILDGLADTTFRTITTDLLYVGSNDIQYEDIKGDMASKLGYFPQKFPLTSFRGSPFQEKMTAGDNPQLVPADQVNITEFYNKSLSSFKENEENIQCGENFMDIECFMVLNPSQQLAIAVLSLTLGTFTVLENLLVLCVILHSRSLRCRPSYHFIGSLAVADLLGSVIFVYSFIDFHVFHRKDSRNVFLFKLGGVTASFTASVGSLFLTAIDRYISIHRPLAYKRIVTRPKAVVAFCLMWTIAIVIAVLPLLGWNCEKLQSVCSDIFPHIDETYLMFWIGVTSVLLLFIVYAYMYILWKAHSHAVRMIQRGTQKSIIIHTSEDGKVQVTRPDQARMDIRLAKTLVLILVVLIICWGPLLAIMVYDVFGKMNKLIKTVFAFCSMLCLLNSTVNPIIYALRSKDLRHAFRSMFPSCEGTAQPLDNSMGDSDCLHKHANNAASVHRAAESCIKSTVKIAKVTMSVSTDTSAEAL
Assay: competitive radioligand binding assay, displacement of [3H]CP55,940, CB1
Conditions: displacement of specific [3H]-CP55940 binding in HEK 293 cells stably transfected with human CB1 receptor
pIC50: −log10 of the molar value.
attribute measured: pIC50

O=C(NC12CC3CC(CC(C3)C1)C2)n1nc(-c2ccc(Cl)cc2Cl)c(-c2ccc(Cl)cc2Cl)n1 5.35

1 = O=C(Cn1nc(-c2ccc(Cl)cc2)c(-c2ccc(Cl)cc2Cl)n1)NCc1cccc2c1OCO2
2 = O=C(Cn1nc(-c2ccc(Cl)cc2)c(-c2ccc(Cl)cc2Cl)n1)NCc1ccc(Cl)c(Cl)c1
3 = O=C(Cn1nc(-c2ccc(Cl)cc2Cl)c(-c2ccc(Cl)cc2Cl)n1)NCc1cc(F)ccc1F
4 = O=C(Cn1nc(-c2ccc(Cl)cc2)c(-c2ccc(Cl)cc2Cl)n1)NCc1ccc(F)cc1F
List from greatest to least pIC50. Your reply should list the labels following the order given in the request.
3, 4, 2, 1
